All values here come from patent US10328066B2.

- Tested on: LS-180
- measurement_description: In vitro proliferation (cell count by microscopy), single agents and combination
- Type: cell-based
- cond: Homo sapiens, LS180; LS-180 (KRAS, PIK3CA), 72 h treatment; 50% of cell counts relative to DMSO
attribute_measured: pIC50
pIC50 here is simply -log10 of the concentration when that concentration is written in mol/L.

Query block: Find the recorded pIC50 belonging to O=c1[nH]cc(F)c(=O)[nH]1 [COMPOUND C, 5-fluoro-2,4-(1H,3H) pyrimidinedione] and report it.
Result block: 4.85

---

- Tested on: LS411N
- measurement_description: In vitro proliferation (cell count by microscopy), single agents and combination
- Assay type: cell-based
- cond: Homo sapiens, LS-411N; LS411N (BRAF), 72 h treatment; 50% of cell counts relative to DMSO
- Description: COMPOUNDS A, B, and C were dissolved in 100% DMSO (Sigma, Catalog number D2650) at concentrations of 20 mM and stored at −20° C. until use. […] Cell lines were cultured in 37° C. and 5% CO2 incubator and expanded in T-75 flasks. In all cases cells were thawed from frozen stocks, expanded through ≥1 passage using 1:3 dilutions, counted and assessed for viability using a ViCell counter (Beckman-Coulter) prior to plating. […]
attribute_measured: IC50 (µM)
Form entry: value (µM) — number only.

Query block: Give the measured IC50 of O=c1[nH]cc(F)c(=O)[nH]1 .
Result block: 4.1

---

- System: HT-29
- measurement_description: In vitro proliferation (cell count by microscopy), single agents and combination
- Type: cell-based
- cond: Homo sapiens; HT-29 (BRAF, PIK3CA), 72 h treatment; 50% of cell counts relative to DMSO
- Experimental: COMPOUNDS A, B, and C were dissolved in 100% DMSO (Sigma, Catalog number D2650) at concentrations of 20 mM and stored at −20° C. until use. […] Cell lines were cultured in 37° C. and 5% CO2 incubator and expanded in T-75 flasks. In all cases cells were thawed from frozen stocks, expanded through ≥1 passage using 1:3 dilutions, counted and assessed for viability using a ViCell counter (Beckman-Coulter) prior to plating. […]
attribute_measured: IC50 (µM)
The reply should contain only the number, in µM.

Query block: // IC50 lookup, key: O=c1[nH]cc(F)c(=O)[nH]1 [COMPOUND C, 5-fluoro-2,4-(1H,3H) pyrimidinedione]
Result block: 7.4
